Reference source: patent US20230357415A1

Target: T1, sIL-4Rα (soluble IL-4Rα) antigen protein (human, UniProt P24394 26-232)
T1 construct: The ELISA and Octet assays used the bought protein (Sinobio 10402-H08H); also called CD124; sinobio 10402-H08H
Experiment: BLI (Octet QKe), antibody on AHC sensor, sIL-4Rα in solution, 1:1 model
Procedure: Antigen affinity of antibodies was analyzed through variation in the refractive index occurring when the antibody bound to the antigen was detached therefrom while the AHC (anti-human IgG Fc capture) sensor chip moved in the order of kinetic buffer, antibody dilution solution, kinetic buffer, antigen dilution solution, and kinetic buffer. Affinity was calculated with Octet Data Analysis software 11.0 in a 1:1 binding model.
Collected kon values appear next to each entry.
Answer format reminder: number followed by unit.

binder | result
4R.N7 (antibody, V domains shown, Converted from scFab to IgG1 and expressed in HEK293F) VH: EVQLLESGGGLVQPGGSLRLSCAASGFTFSRHAMAWVRQAPGKGLEWVSAITASGRSIYYADSVKGRFTISRDNSKNTLYLQMNSLRAEDTAVYYCARVHRAFDYWGQGTLVTVSS VL: QSVLTQPPSASGTPGQRVTISCSGSPLFPDSGSFNWYQQLPGTAPKLLIYADSHRPSGVPDRFSGSKSGTSASLAISGLRSEDEADYYCGTWDYSLSSYVLGGGTKLTVLG | 1.55e+06 M⁻¹ s⁻¹

Data request: Entry 4R.N1 (antibody, V domains shown, Converted from scFab to IgG1 (pcDNA3.4 vector with IgG1 constant regions) and expressed in HEK293F) VH: EVQLLESGGGLVQPGGSLRLSCAASGFTFSRHAMAWVRQAPGKGLEWVSAITASGRSIYYADSVKGRFTISRDNSKNTLYLQMNSLRAEDTAVYYCARVHRAFDYWGQGTLVTVSS VL: QSVLTQPPSASGTPGQRVTISCSGSPLFPDSGSFNWYQQLPGTAPKLLIYADSHRPSGVPDRFSGSKSGTSASLAISGLRSEDEADYYCGTWDYSLNRYVLGGGTKLTVLG has what kon?
Data returned: 1.99e+06 M⁻¹ s⁻¹
